Each item that follows carries a reported MIC VRE (E. faecalis) ATCC 51575.
# System: VRE (E. faecalis) ATCC 51575
# Format: cell-based, Enterococcus faecalis
# Condition info: ATCC 51575, 18 h
Square brackets hold non-standard residues; d marks the D form. Peptide text beside a SMILES is read from it. * marks the point of attachment. Hexanoyl = CCCCCC(=O)*

Compound | Tested target | Unit abbrev | Lt gt eq | MIC VRE (E. faecalis) ATCC 51575
CC(C)[C@@H](NC(=O)[C@@H](Cc1c[nH]c2ccccc12)NC(=O)[C@H](NC(=O)[C@H](NC(=O)[C@@H](Cc1c[nH]c2ccccc12)NC(=O)[C@@H](CCCNC(=N)N)NC(=O)[C@@H](CCCNC(=N)N)NC(=O)[C@H](N)CCCNC(=N)N)C(C)C)C(C)C)C(=O)N[C@H](Cc1c[nH]c2ccccc12)C(=O)N[C@H](Cc1c[nH]c2ccccc12)C(N)=O [KSH83, rrrwvvwvww] (H-[dR][dR][dR][dW][dV][dV][dW][dV][dW][dW]-NH2; N-terminus assumed) | VRE (E. faecalis) ATCC 51575 | µM | = | 1.25
CCCCCC(=O)NCCCC[C@@H](N)C(=O)N[C@H](Cc1c[nH]c2ccccc12)C(=O)N[C@H](CC(C)C)C(=O)N[C@H](CC(C)C)C(=O)N[C@H](Cc1c[nH]c2ccccc12)C(=O)N[C@@H](C(=O)NCC(=O)N[C@H](CC(C)C)C(=O)N[C@H](CCCNC(=N)N)C(=O)N[C@H](CCCCN)C(=O)N[C@H](CCCCN)C(=O)N[C@H](CCCNC(=N)N)C(N)=O)[C@H](C)CC [KSH9, kwllwiglrkkr] (H-[dK](Hexanoyl)[dW][dL][dL][dW][dI]G[dL][dR][dK][dK][dR]-NH2; N-terminus assumed) | VRE (E. faecalis) ATCC 51575 | µM | = | 1.25
CC[C@@H](C)[C@@H](NC(=O)[C@@H](Cc1c[nH]c2ccccc12)NC(=O)[C@@H](C)NC(=O)[C@@H](C)NC(=O)[C@H](N)Cc1c[nH]c2ccccc12)C(=O)NCC(=O)N[C@H](CC(C)C)C(=O)N[C@H](CCCNC(=N)N)C(=O)N[C@H](CCCNC(=N)N)C(N)=O [KSH78, waawiglrr] (H-[dW][dA][dA][dW][dI]G[dL][dR][dR]-NH2; N-terminus assumed) | VRE (E. faecalis) ATCC 51575 | µM | > | 10
CC(C)[C@@H](NC(=O)[C@@H](Cc1c[nH]c2ccccc12)NC(=O)[C@H](NC(=O)[C@H](NC(=O)[C@@H](Cc1c[nH]c2ccccc12)NC(=O)[C@@H](CCCNC(=N)N)NC(=O)[C@@H](CCCNC(=N)N)NC(=O)[C@H](N)CCCNC(=N)N)C(C)C)C(C)C)C(=O)N[C@@H](C(=O)N[C@H](Cc1c[nH]c2ccccc12)C(N)=O)C(C)C [KSH84, rrrwvvwvvw] (H-[dR][dR][dR][dW][dV][dV][dW][dV][dV][dW]-NH2; N-terminus assumed) | VRE (E. faecalis) ATCC 51575 | µM | = | 1.25
CC(C)[C@@H](NC(=O)[C@H](N)Cc1c[nH]c2ccccc12)C(=O)N[C@@H](C(=O)N[C@H](Cc1c[nH]c2ccccc12)C(=O)N[C@@H](C(=O)N[C@H](Cc1c[nH]c2ccccc12)C(=O)N[C@H](CCCCN)C(=O)N[C@H](CCCCN)C(=O)N[C@H](CCCCN)C(N)=O)C(C)C)C(C)C [KSH66, wvvwvwkkk] (H-[dW][dV][dV][dW][dV][dW][dK][dK][dK]-NH2; N-terminus assumed) | VRE (E. faecalis) ATCC 51575 | µM | = | 0.63

----------
# System: VRE (E. faecalis) ATCC 51575
# Type: cell-based, Enterococcus faecalis
# Condition info: ATCC 51575, 18 h
Square brackets hold non-standard residues; d marks the D form. Peptide text beside a SMILES is read from it.

Compound | MIC VRE (E. faecalis) ATCC 51575 [µM]
CC(C)[C@@H](NC(=O)[C@H](N)Cc1c[nH]c2ccccc12)C(=O)N[C@@H](C(=O)N[C@H](Cc1c[nH]cn1)C(=O)N[C@@H](C(=O)N[C@@H](C(=O)N[C@H](Cc1c[nH]c2ccccc12)C(=O)N[C@H](CCCNC(=N)N)C(=O)N[C@H](CCCNC(=N)N)C(=O)N[C@H](CCCNC(=N)N)C(N)=O)C(C)C)C(C)C)C(C)C [KSH45, wvvhvvwrrr] (H-[dW][dV][dV][dH][dV][dV][dW][dR][dR][dR]-NH2; N-terminus assumed) | 1.25

----------
Each item that follows carries a reported MIC MRAB (A. baumannii) ATCC BAA 1605.
# System: MRAB (A. baumannii) ATCC BAA 1605
# Type: cell-based, Acinetobacter baumannii
# Condition info: ATCC BAA 1605, 18 h
Square brackets hold non-standard residues; d marks the D form. Peptide text beside a SMILES is read from it.

Compound | Tested target | MIC MRAB (A. baumannii) ATCC BAA 1605
CC(C)[C@@H](NC(=O)[C@H](N)Cc1c[nH]c2ccccc12)C(=O)N[C@H](C)C(=O)N[C@H](Cc1c[nH]c2ccccc12)C(=O)N[C@H](C)C(=O)N[C@@H](C(=O)N[C@H](Cc1c[nH]c2ccccc12)C(=O)N[C@H](CCCNC(=N)N)C(=O)N[C@H](CCCNC(=N)N)C(=O)N[C@H](CCCNC(=N)N)C(N)=O)C(C)C [KSH71, wvawavwrrr] (H-[dW][dV][dA][dW][dA][dV][dW][dR][dR][dR]-NH2; N-terminus assumed) | MRAB (A. baumannii) ATCC BAA 1605 | 1.25 µM
CC[C@@H](C)[C@@H](NC(=O)[C@@H](Cc1c[nH]c2ccccc12)NC(=O)[C@@H](CCCNC(=N)N)NC(=O)[C@@H](CCCNC(=N)N)NC(=O)[C@H](N)CCCNC(=N)N)C(=O)N[C@H](Cc1c[nH]c2ccccc12)C(=O)N[C@H](Cc1c[nH]c2ccccc12)C(=O)N[C@H](CC(C)C)C(=O)N[C@H](Cc1c[nH]c2ccccc12)C(=O)N[C@H](CCCCN)C(N)=O [KSH50, rrrwiwwlwk] (H-[dR][dR][dR][dW][dI][dW][dW][dL][dW][dK]-NH2; N-terminus assumed) | MRAB (A. baumannii) ATCC BAA 1605 | 0.63 µM

----------
Each item that follows carries a reported MIC MRPA (P. aeruginosa) CCARM 2180.
# Tested on: MRPA (P. aeruginosa) CCARM 2180
# Format: cell-based, Pseudomonas aeruginosa
# Condition info: CCARM 2180, 18 h
Ends that are not written are not given here.
Endpoint label: MIC MRPA (P. aeruginosa) CCARM 2180

Substance | Endpoint label | Recorded measurement
WVVWVYVRKKR-NH2 [LSH6] | MIC MRPA (P. aeruginosa) CCARM 2180 | 40 µM
WLLWIALRKKR-NH2 [KSH1] | MIC MRPA (P. aeruginosa) CCARM 2180 | 40 µM
WLWVWVRKKR-NH2 [LSH5] | MIC MRPA (P. aeruginosa) CCARM 2180 | 40 µM
WVVWVVYRKKR-NH2 [LSH7] | MIC MRPA (P. aeruginosa) CCARM 2180 | >40 µM
WVLWVWLRKKR-NH2 [LSH1] | MIC MRPA (P. aeruginosa) CCARM 2180 | 20 µM
WLLWVYVRKKR-NH2 [XSH2] | MIC MRPA (P. aeruginosa) CCARM 2180 | 20 µM
WLVYVWLRKKR-NH2 [LSH2] | MIC MRPA (P. aeruginosa) CCARM 2180 | 20 µM
WLAWLYLRKKR-NH2 [LSH8] | MIC MRPA (P. aeruginosa) CCARM 2180 | >40 µM
VWVWVWVRKKR-NH2 [LSH99] | MIC MRPA (P. aeruginosa) CCARM 2180 | >40 µM
WLLWVLWRKKR-NH2 [LSH3] | MIC MRPA (P. aeruginosa) CCARM 2180 | 20 µM
WLLWLYARKKR-NH2 [LSH9] | MIC MRPA (P. aeruginosa) CCARM 2180 | 40 µM

----------
Each item that follows carries a reported MIC VRE (E. faecalis) ATCC 51575.
# Tested on: VRE (E. faecalis) ATCC 51575
# Format: cell-based, Enterococcus faecalis
# Condition info: ATCC 51575, 18 h
Square brackets hold non-standard residues; d marks the D form. Peptide text beside a SMILES is read from it.

Compound | Lt gt eq | MIC VRE (E. faecalis) ATCC 51575 [µM]
CC[C@@H](C)[C@@H](NC(=O)[C@@H](Cc1c[nH]c2ccccc12)NC(=O)[C@H](NC(=O)[C@@H](CC(C)C)NC(=O)[C@H](N)Cc1c[nH]c2ccccc12)C(C)C)C(=O)N[C@H](Cc1c[nH]c2ccccc12)C(=O)N[C@H](CCCNC(=N)N)C(=O)N[C@H](CCCNC(=N)N)C(N)=O [KSH32, wlvwiwrr] (H-[dW][dL][dV][dW][dI][dW][dR][dR]-NH2; N-terminus assumed) | = | 1.25
CC[C@@H](C)[C@@H](NC(=O)[C@@H](Cc1c[nH]c2ccccc12)NC(=O)[C@@H](CCCNC(=N)N)NC(=O)[C@@H](CCCNC(=N)N)NC(=O)[C@H](N)CCCNC(=N)N)C(=O)N[C@H](Cc1c[nH]c2ccccc12)C(=O)N[C@@H](C(=O)N[C@H](CC(C)C)C(=O)N[C@H](Cc1c[nH]c2ccccc12)C(=O)N[C@H](CCCCN)C(N)=O)C(C)C [KSH43, rrrwiwvlwk] (H-[dR][dR][dR][dW][dI][dW][dV][dL][dW][dK]-NH2; N-terminus assumed) | = | 0.63
CC[C@@H](C)[C@@H](NC(=O)[C@@H](Cc1c[nH]c2ccccc12)NC(=O)[C@@H](C)NC(=O)[C@@H](C)NC(=O)[C@H](N)Cc1c[nH]c2ccccc12)C(=O)NCC(=O)N[C@H](CC(C)C)C(=O)N[C@H](CCCNC(=N)N)C(=O)N[C@H](CCCCN)C(=O)N[C@H](CCCCN)C(=O)N[C@H](CCCNC(=N)N)C(N)=O [KSH20, waawiglrkkr] (H-[dW][dA][dA][dW][dI]G[dL][dR][dK][dK][dR]-NH2; N-terminus assumed) | > | 40
